Reported pEC50 values for a set of molecules
# TESTED_SYSTEM: human ALX receptor (Homo sapiens, UniProt P25090)
# Sequence (P25090 whole entry): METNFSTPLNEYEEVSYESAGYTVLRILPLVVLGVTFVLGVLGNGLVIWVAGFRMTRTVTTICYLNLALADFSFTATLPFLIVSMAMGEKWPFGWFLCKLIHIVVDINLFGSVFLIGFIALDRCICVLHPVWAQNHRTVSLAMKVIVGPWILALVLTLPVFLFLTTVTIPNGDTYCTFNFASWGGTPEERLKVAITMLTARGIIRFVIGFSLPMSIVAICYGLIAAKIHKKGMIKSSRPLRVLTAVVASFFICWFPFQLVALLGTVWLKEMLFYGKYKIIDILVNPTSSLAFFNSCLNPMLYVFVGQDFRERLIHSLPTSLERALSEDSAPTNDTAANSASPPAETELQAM
# TEST_NAME: Intracellular calcium measurements (FLIPR) in HEK293-hALXR-Gα16 cells, agonistic activity
# ASSAY_CONDITIONS: values normalized to WKYMVm 10 nM
pEC50: −log10 of the molar value.
PARAMETER: pEC50

>>> meas_value("O=C(OCC1CCNCC1)[C@H]1[C@H](C(=O)NCc2ccc(Br)cc2F)[C@@H]2CC[C@H]1C21CC1")
7.28
>>> meas_value("O=C(OCCCCN1CCCC1)[C@H]1[C@H](C(=O)Nc2ccc(Br)nc2)[C@@H]2CC[C@H]1C21CC1")
7.84
>>> meas_value("Cc1cc(CNC(=O)[C@H]2[C@H](C(=O)OCCOCCN3CC[C@H](F)C3)[C@H]3CC[C@@H]2C32CC2)no1")
7.67
>>> meas_value("O=C(OC1CCNCC1)[C@H]1[C@H](C(=O)NCc2ccc(Br)cc2F)[C@@H]2CC[C@H]1C21CC1")
7.36
>>> meas_value("O=C(Nc1ccc(Br)cc1)C1C(C(=O)OCC2CCNCC2)C2C=CC1C21CC1 (stereo not shown)")
8.54
>>> meas_value("O=C(O[C@@H]1CCNC[C@H]1F)[C@H]1[C@H](C(=O)Nc2ccc(Br)nc2)[C@@H]2CC[C@H]1C21CC1 (relative stereo)")
7.48
>>> meas_value("Cc1cc(CNC(=O)[C@H]2[C@H](C(=O)OCCN(C)C)[C@H]3CC[C@@H]2C32CC2)no1")
6.23
